Molecular target: human NCX1 (Homo sapiens)
Construct: expressed in transfected cells
Assay: NCX1 inhibition, reverse mode (Ca2+ influx into cells), FLIPR Fluo-4 assay
Assay type: cell-based
Settings: inhibition of NCX1 in reverse mode (Ca2+ influx into cells); read-out: NCX1rv IC50
Structures can show the parent of a compound that is named as a salt.
Give measured pIC50 for each item. Keep answers brief.
// returns pIC50 (minus log10 of molar concentration), number only

[in] Which pIC50 value is on record for Cc1cc(C(=O)NCc2cnc(Oc3ccc4c(c3)CCC(c3ccccc3)O4)s2)nc(C)n1 (centres unmarked) ?
[out] 5.28

[in] Fill in the blank: the reported pIC50 of Cc1ncc(S(=O)(=O)NCc2cnc(Oc3ccc4c(c3)CCC(c3ccccc3)O4)s2)n1C (centres unmarked) is ____.
[out] 5.96

[in] So what does the record say about pIC50 for CS(=O)(=O)c1ccc(C2CCc3cc(Oc4ncc(C(=O)NCc5ccno5)s4)ccc3O2)cc1 (centres unmarked) ?
[out] 5.16

[in] Report pIC50 for CC1CN(C(=O)c2cnc(Oc3ccc4c(c3)CC[C@@H](c3ccccc3)O4)s2)CC1C(=O)O (some centres unmarked) please.
[out] 6.30

[in] I would be grateful if you could share the reported pIC50 for O=C(NCCO)c1cnc(Oc2ccc3c(c2)CCC(c2cncc(F)c2)O3)s1 (centres unmarked) .
[out] 6.22

[in] Consider the molecule N[C@H]1C[C@@H]1NC(=O)c1cnc(Oc2ccc3c(c2)CCC(c2cccnc2)O3)s1 (some centres unmarked) [compound 267, hydrochloride] and give its measured pIC50.
[out] 6.22

[in] Returns the measured pIC50 for the input molecule. Input: Cc1noc(C)c1C(=O)NCc1cnc(Oc2ccc3c(c2)CCC(c2ccccc2)O3)s1 (centres unmarked)
[out] 6.70

[in] I would be grateful if you could share the reported pIC50 for Cc1ccccc1C1CCc2cc(Oc3ncc(C(=O)N4CC[C@@H](O)C4)s3)ccc2O1 (some centres unmarked) .
[out] 6.70
